target: T1, human CD8 alpha (CD8A) on primary human CD8+ T cells (human, UniProt P01732 22-235); experiment: flow cytometry, human CD8+ T cells, 0.2 uM FN3
T1 construct: whole, on cells; also called hCD8A
T1 sequence (P01732 22-235): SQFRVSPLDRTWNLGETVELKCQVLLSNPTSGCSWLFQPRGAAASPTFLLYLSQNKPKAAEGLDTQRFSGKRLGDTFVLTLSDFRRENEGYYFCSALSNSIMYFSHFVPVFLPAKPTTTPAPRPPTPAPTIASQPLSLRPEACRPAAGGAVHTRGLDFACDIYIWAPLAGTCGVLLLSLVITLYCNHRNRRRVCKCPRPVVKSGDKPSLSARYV
ATTRIBUTE_MEASURED: Human T-cell Binding 0.2 uM (MFI)

1) P282DR9P1359_G4 (designed binder, FN3 domain) LPAPKNLVVSRVTEDSARLSWTAPDAAFDSFEIAYPEWPPPGEAIVLTVPGSERSYDLTGLKPGPEYFVVIQGVKGGDPSFPLSAIFTTGGNHHHHH = 2670 MFI
2) P283AR9P1362_B2 (designed binder, FN3 domain) LPAPKNLVVSRVTEDSARLSWAKHPNSFDSFLIQYQESEKVGEAIVLTVPGSERSYDLTGLKPGTEYTVSIYGVDVVVNELNNPLFSNPLSAIFTT = 3500 MFI
3) P282ER9P1360_C1 (designed binder, FN3 domain) LPAPKNLVVSRVTEDSARLSWTTPDAAFDSFGILYYEPVDSGEAITLPVPGSERSYDLTGLKPGTEYWVVITGVKGGAPSTPLGAIFTT = 6290 MFI
4) P283AR9P1362_D2 (designed binder, FN3 domain) LPAPKNLVVSRVTEDSARLSWQRPKSGFFDSFLIQYQESEKVGEAIVLTVPGSERSYDLTGLKPGTEYTVSIYGVDVKYDIDSRPISSNPLSAIFTT = 2760 MFI
5) P282DR9P1359_A7 (designed binder, FN3 domain) LPAPKNLVVSRVTEDSARLSWTAPDAAFDSFRIGYPELEKLGYGEAIVLTVPGSERSYDLTGLKPGTEYWVIIWGVKGGENSWPLSAIFTT = 8760 MFI
